molecular target: Ba/F3-Flt3-transfected cells (Homo sapiens, UniProt P36888, cells depend on it, form not given); assay: Ba/F3-Flt3 (minus IL3) cellular proliferation assay, Alamar Blue; assay type: cell-based; settings: minus IL3
For each entry below, report its BAF3-FLT3 (MIN IL3) 384 well pIC50 value.

Note to self: BAF3-FLT3 (MIN IL3) 384 well pIC50 recorded for `COc1cc(OC)cc(N(CCNC(C)C)c2ccc3ncc(-c4ccccc4)nc3c2)c1` was ~5.34

The recorded BAF3-FLT3 (MIN IL3) 384 well pIC50 for `COc1cc(OC)cc(N(CC2CC2)c2ccc3ncc(C#Cc4ccncc4)nc3c2)c1` is <5

Note to self: BAF3-FLT3 (MIN IL3) 384 well pIC50 recorded for `COc1cc(OC)cc(N(CC2CC2)c2ccc3ncc(-c4cn(C)cn4)nc3c2)c1` was <5

Input COC(=O)C1CCCN1c1cnc2ccc(N(CCO)c3cc(OC)cc(OC)c3)cc2n1 (centres unmarked) . Output BAF3-FLT3 (MIN IL3) 384 well pIC50: 5.19

Lab book: BAF3-FLT3 (MIN IL3) 384 well pIC50 of `COc1cc(OC)cc(N(CCCNCC(=O)O)c2ccc3ncc(-c4ccnc(C(=O)NCCCCN)c4)nc3c2)c1` noted as <5

Value of measured BAF3-FLT3 (MIN IL3) 384 well pIC50 for the entry `COc1cc(OC)cc(N(CC2CC2)c2ccc3ncc(C(=O)Nc4cncn4C)nc3c2)c1` : <5

The compound listed as `COc1cc(OC)cc(N(CCO)c2ccc3ncc(-c4ccc(N5CCNCC5)cc4)nc3c2)c1` has a reported BAF3-FLT3 (MIN IL3) 384 well pIC50 of 5.46

BAF3-FLT3 (MIN IL3) 384 well pIC50 reported for this compound `COc1cc(OC)cc(N(CCNC(C)C)c2ccc3ncc(-n4cnc(COC(C)=O)c4)nc3c2)c1` : <5
